# reported cytotoxicity at 10 µM; entries follow
Test: Toxicity liver stage against HepG2, at 10uM
Type: cell-based
Set-up: test concentration 10 uM, cell line HepG2-A16-CD81EGFP
Conditions: human, HepG2-A16-CD81EGFP cells; read-out: INHIBITION
Give the value; after it, write the unit.

What value of cytotoxicity at 10 µM has been recorded for this entry: Cc1cc(C)c(C(=O)N2CCC3(CCCN(CC(C)(C)C)C3)C2)[nH]1 (stereo not given) -3.73%

Moving on to the next compound: CCCOCC1CCN(C(=O)c2cnc(-c3cccnc3)nc2O)C1 (stereo not given) -2.55%

# iterate: O=C1CCSCC(C(=O)N2CCCC2)N1 (stereo not given) -9.83%

Try this compound next: `Cc1ccc(CN2CCC3(CCCN3C(=O)C(C)C)CC2)o1` -5.9%

Now consider CCCS(=O)(=O)N1CCCC(c2nc(-c3ccccc3)c[nH]2)C1 (stereo not given) and answer again. 16.2%

###

Test: Toxicity liver stage against HepG2, at 10uM
Format: cell-based
Parameters: test concentration 10 uM, cell line HepG2-A16-CD81EGFP
Conditions: human, HepG2-A16-CD81EGFP cells; read-out: INHIBITION
Below is a list of entries, each paired with its recorded cytotoxicity at 10 µM value.
Supply the numeric figure in %, leaving out any unit text.

>>> observed_value("Cc1cc(NCCS(C)(=O)=O)nc2ccccc12")
0.748
>>> observed_value("Cc1ccc(CN(CCCn2ccnc2)Cc2c[nH]cn2)s1")
-4.99
>>> observed_value("c1csc(CN2C[C@@H](n3cccn3)[C@H]3OCCC[C@H]32)c1")
1.63

# cytotoxicity at 10 µM lookup, item CC(C)N1CC(C(=O)NCCc2csc(-c3ccncc3)n2)CC1=O (stereo not given) -21

Another molecule to check: `CCNC(=O)CNC(=O)Nc1c(F)cc(F)cc1-c1ccccc1` -7.55

###

Recorded cytotoxicity at 10 µM by entry
Test: Toxicity liver stage against HepG2, at 10uM
Type: cell-based
Parameters: test concentration 10 uM, cell line HepG2-A16-CD81EGFP
Settings: human, HepG2-A16-CD81EGFP cells; read-out: INHIBITION
Kindly answer with a numeric value in %, unit omitted.

>>> observed_value("O=S1(=O)CCC(n2cc(CNc3ccccc3Br)cn2)C1 (stereo not drawn)")
-4.9

Now look at this entry.
Data request, read-out cytotoxicity at 10 µM, for `O=C(Nc1cccc(F)c1)C1=NOC2(CCNCC2)C1` 5.19

###

Experiment: Toxicity liver stage against HepG2, at 10uM
Assay type: cell-based
Design: test concentration 10 uM, cell line HepG2-A16-CD81EGFP
Details: human, HepG2-A16-CD81EGFP cells; read-out: INHIBITION
Measured cytotoxicity at 10 µM values are reported for all entries that follow.
Report the value in % with no unit label.

Answered cases to consult:
>>> observed_value("O=C(CSc1ncccn1)N1C[C@@H]2CC[C@H]1CN(Cc1ccncc1)C2")
-13
>>> observed_value("O=C(NCCO)c1sc2ncccc2c1C1CN(C2CCCC2)CCO1 (configuration not stated)")
10.8
>>> observed_value("CN(CCc1nc(-c2cccc(Cl)c2)no1)CCn1cccn1")
8.86
>>> observed_value("N#Cc1ccc(S(=O)(=O)NC(=O)C2CC2)c(C(F)(F)F)c1")
-11.1
>>> observed_value("Cc1c(CNCC(C)Oc2cccnc2)c2ccccc2n1CC(N)=O (configuration not stated)")
-141
>>> observed_value("CNC(=O)[C@@H]1CCO[C@@H]2CCN(CCc3ccccc3)C[C@H]21")
2.55
>>> observed_value("CC(C)(NCCCOc1ccc(C#N)cc1)c1nccs1")
-0.476
>>> observed_value("CCN(C(C)=O)c1nc(CN2CCCCC2Cn2cncn2)cs1 (configuration not stated)")
-5.4

Quick check: cytotoxicity at 10 µM of COCCN1CCC2(COCc3c(C)nc(N4CCOCC4)nc32)C1 (configuration not stated) ? -130

Try this compound next: `CCn1cc(CN2CCC(c3nnc(CN(C)C)n3CC)CC2)cn1` -22.3

Next record, please: `COCCn1c(=O)n(Cc2cccc(F)c2F)c2cc(C(=O)O)ccc21` 9.15

Another: `CCNC(=O)CCN1CCC(c2cc(N3CCOCC3)nc(C)n2)CC1` -10.8

Please give the result for COCCN(C)C(C(=O)O)c1ccc(Cl)c(F)c1 (configuration not stated) too. -2.46

Another compound: `Cc1nnc(NC(=O)NCc2cc(F)cc(F)c2)s1` -6.07

Same read-out for `COc1cc(C(C)=O)ccc1OCC(=O)N(Cc1ccsc1)C1CC1` ? 1.88

Cool, now CC(C)(C)c1nccc(N2CCCCC2CCNS(C)(=O)=O)n1 (configuration not stated) 8.83

Next record, please: COCCC(=O)N1CCOCC(Cc2ccc3c(ccn3C)c2)C1 (configuration not stated) 6.66
